Where do these numbers come from? They come from PubChem BioAssay (NCI).

- Tested on: SR leukemia
- protocol_summary: NCI-60 one-dose screen, 48 h (100 = growth as untreated, 0 = no growth, -100 = all killed)
- reported_conditions: 10 µM unless noted
- Procedure: Growth inhibition of the SR human tumor cell line is measured as a screen for anti-cancer activity. Cells are grown in 96 well plates and exposed to the test compound for 48 hours. Compounds are tested at a single concentration, which is 10^-5 M for most compounds. The reported endpoint is percent growth (GI% or GIPRCNT), where numbers from 0 - 100% represent growth inhibition, and numbers from -100% - 0 represent cell death. For example, a value of 40 represents 60% growth inhibition. […]
This is part of a sample that, as a whole, favours compounds with a hit. Of some 83,000 tested, about 20% had one in any assay.
Labelling: growth reported below 10% becomes MET; at or above becomes NOT MET.

Take a look at these entries with their results.
COc1cccc(CCC2C(=O)CCCC2=O)c1 ... NOT MET
c1ccc2cc(C[n+]3ccn(CCCCCCCn4cc[n+](Cc5ccc6ccccc6c5)c4)c3)ccc2c1 ... NOT MET
COc1ccc(OC)c2c1[nH]c(=O)c1c3ccccc3cn21 ... MET
O=C(c1ccccc1)c1ccco1 ... NOT MET

Check if growth falls below 10% for `CC/C(=C\c1ccc(N(C)C)cc1)c1ccncc1` .
NOT MET

Problem: For the molecule `COc1ccc(/C=C/C(=O)Nc2cccnc2Nc2ccc(F)cc2)cc1` , is growth under 10%?
NOT MET

Record CCOC(=O)C(C(C)=O)c1nc2sc3cc(Cl)ccc3n2c(=N)c1C#N (stereo unspecified) : is its growth strictly below 10%?
NOT MET

In the record for `CCN(CC)CCOc1ccc(C2=C(c3ccccc3)CCc3cc(OC)ccc32)cc1` , is growth less than 10%?
MET

Is growth of `O=c1[nH]c(Cl)nc2c1cnn2-c1ccccc1` strictly below 10%?
NOT MET

Below 10% on growth? Entry `COc1ccc(-c2cc(C(=O)Nc3nc4cc(C)c(C)cc4s3)nc3cc(-c4ccccc4)nn23)cc1OC`
NOT MET

Please state whether growth is below 10% for `N#Cc1cccc(/C=C(/C(=O)c2ccccc2)c2ccccc2)c1`
MET

Report whether reported growth is lower than 10% (strictly) for `COC(=O)CCC1=C(CC(=O)OC)C(C)=N/C1=C\c1[nH]c(-c2ccc[nH]2)cc1OC`
MET

Find out if reported growth for `CCS(=O)(=O)OCCCl` is less than 10%
NOT MET

Is growth strictly under 10% for the entry `CCC(CC)NCCCCCNc1cc(OC)cc2cccnc12` ?
NOT MET

---

- Test system: SW-620 colon
- protocol_summary: NCI-60 one-dose screen, 48 h (100 = growth as untreated, 0 = no growth, -100 = all killed)
- reported_conditions: 10 µM unless noted
About 83,000 compounds went through this panel and 20% of them were active in at least one assay; those are over-represented in the sample as a whole.
measurement_kind: growth (%)
Answer with a number only, understood to be in %.

COc1ccc(C2=NNC(c3cc(Cc4ccc(O)c(C5CC(c6ccc(OC)cc6)=NN5)c4)ccc3O)C2)cc1 (stereo unspecified) ... 30.3
O=[N+]([O-])c1ccc(N/N=C\c2ccccc2[N+](=O)[O-])nc1 ... 107

Quick check: growth of `O=C(/C=C/c1ccc(O)c(O)c1)N1CCN(c2ccc(Cl)cc2)CC1` ?
64

Suppose we examine the compound `ClC1=C(Cl)C(=C2C(Cl)=C(Cl)C(Cl)=C2Cl)C(Cl)=C1Cl` ; what growth value has been reported?
102

Record request: growth value, item `O=C(Nc1ccc(Oc2ccc(NC(=O)Nc3ccc([N+](=O)[O-])cc3)cc2)cc1)Nc1ccc([N+](=O)[O-])cc1`
10.8

For the compound COc1cc(C2CC(c3ccc(C)cc3)=NN2C(C)=O)ccc1Oc1ccnc2cc(Cl)ccc12 (stereo unspecified) , what growth is on record?
66.3

I am curious: what growth value has been reported for COc1ccc(C2CC(c3ccc(OC)c(OC)c3)=NN2C(=O)c2cc(OC)c(OC)c(OC)c2)c(OC)c1 (stereo unspecified) ?
62.2

Which growth value is on record for `CC[N+](CC)(CCOCCOCC[N+](CC)(CC)Cc1ccc([N+](=O)[O-])cc1)Cc1ccc([N+](=O)[O-])cc1` ?
101

Dear colleague, I am looking for the recorded growth of the following compound: `Cc1ccc(C(=O)Nc2ccc(Cl)cc2C(=O)NCc2ccccc2)cc1`
58.9

Which growth reading was recorded for the compound CCOC(=O)C(Cc1ccccc1)(C(=O)OCC)C(Br)C(=O)c1ccccc1 (stereo unspecified) ?
39.8

growth for `COc1ccc2[nH]cc(/C=C3/C(=O)Nc4ccc(F)cc43)c2c1` ?
101

Request the reported growth associated with `O=c1[nH]c(Cl)nc2c1cnn2-c1ccccc1`
50.6

Find the recorded growth belonging to `N#CCCCCCn1c2ccccc2c2c3c(c4c5ccccc5[nH]c4c21)C(=O)N(O)C3=O` and report it.
12.5

Which growth reading was recorded for the compound `O=C(C=C=Nc1ccccc1)C(=O)N=C=Cc1ccccc1` ?
-26.3

Reported growth for `CCOC(=O)/C(=C/c1ccccc1)C(=O)c1ccccc1` : what is it?
70.9

What measured growth goes with `Cc1ccc(C(C)C)cc1NC(=O)Nc1ccc([N+](=O)[O-])cc1` ?
10.5

Could you share which growth value was measured for `Cn1cc(-c2csc(-c3cn(C)c4ncccc34)n2)c2cc(F)cnc21` ?
61.7

---

- Tested on: UACC-62 melanoma
- protocol_summary: NCI-60 one-dose screen, 48 h (100 = growth as untreated, 0 = no growth, -100 = all killed)
- reported_conditions: 10 µM unless noted
The panel holds about 83,000 compounds, 20% with a hit somewhere; the sample as a whole holds those more often.
growth listing for selected compounds.
Answer format: numeric, % implied, no suffix.

Examples with their reported growth follow.
CC(C)[C@]12O[C@H]1[C@@H]1O[C@]13[C@]1(O[C@H]1C[C@H]1C4=C(CC[C@@]13C)C(=O)OC4)[C@@H]2OC(=O)CN(C)C ... -34.8
COc1c(O)cc2oc3cc(O)c(CC=C(C)C)c(O)c3c(=O)c2c1C/C=C(\C)CCC=C(C)C ... 98.9
O=C(CCc1nnc2sc(Cc3ccccc3Cl)nn12)c1nc2ccccc2[nH]1 ... 83.9
CCCCc1nc(Cl)c(CO)n1Cc1ccc(-c2ccccc2-c2nn[nH]n2)cc1 ... 102
COc1ccc(-c2cnnn2-c2cc(OC)c3c(c2)OCO3)cc1 ... 26.8
CN1CCCC1c1cccnc1 (centres undefined) ... 94.1
Clc1ccccc1[C@@H]1C[C@@H]2Cc3cc(Br)c4ccccc4c3N1O2 ... 24.4
CC[C@H](C)C(=O)O[C@H]1C[C@@H](C)C=C2C=C[C@H](C)[C@H](CC[C@@H]3C[C@@H](O)CC(=O)O3)[C@H]21 ... 23.7

For the record `CCn1c2ccccc2c2ccc(C(C)=O)cc21` , what value of growth is listed for UACC-62 melanoma?
97.9

Reported growth for UACC-62 melanoma, given `Cc1cc(C)n(C(=O)c2nn(-c3ccc(Cl)cc3)cc2O)n1` ?
52.9

Query for UACC-62 melanoma: what growth does the record show for `O=C(Nc1ncc([N+](=O)[O-])s1)c1cccc([N+](=O)[O-])c1` ?
9.35

// fetch UACC-62 melanoma growth for `O=C(c1nn(-c2ccc(Cl)cc2)cc1O)n1nc(C(F)(F)F)cc1-c1ccccc1`
44.2

Form field: growth recorded for `O=C(Nc1ccccc1Cl)c1cnc2ccc(C3CCNCC3)cn12` with UACC-62 melanoma (enter value)
93.6

I'm curious: which growth was measured for `N#Cc1ccc(NC(=O)Nc2ccc(Oc3ccc(NC(=O)Nc4ccc(C#N)cc4)cc3)cc2)cc1` tested on UACC-62 melanoma?
11.2

Notebook entry, UACC-62 melanoma assay: growth of `O=C(Oc1ccc[nH]c1=O)c1cccc(Cl)c1` = ?
95.3

I'm curious: which growth was measured for `COc1cc(/C=C/C(=O)N2CCN(C(=O)/C=C/c3ccccc3)CC2)cc(OC)c1OC` tested on UACC-62 melanoma?
100

Fill in the recorded growth for this compound, with UACC-62 melanoma as test system: `CCN(CC)CCNc1ccc(Cl)cc1Cl`
112

# query: growth | item `COC(=O)c1ccc2c(c1)nc(-c1ccc(O)c(OC)c1)n2-c1cc(C(C)(C)C)[nH]n1` | system: UACC-62 melanoma
88.3

Under UACC-62 melanoma: growth value of `CC(=O)NCCSC(=O)C(=O)SCCNC(C)=O` ?
99.4

Observed growth on UACC-62 melanoma for `COc1ccc2c(c1)C(=O)c1c-2c(OCCN(C)C)nc2cc(OC)ccc12` , please.
7.14

Query growth on UACC-62 melanoma for COc1cc(/C=C2\CCC/C(=C\c3ccc(OCC4CO4)c(OC)c3)C2=O)ccc1OCC1CO1 (centres undefined)
3.6

Form: Entry = C[N+]1(CCC[N+]2(C)C[C@@H]3[C@H](C2)[C@@H]2C=C[C@H]3C2)CCOCC1 (some centres undefined) | System = UACC-62 melanoma | growth = ____
97.7

Lab request: please report growth under test system UACC-62 melanoma for `CCCCCCC/C(=N\N=C(N)N)c1ccc(O)cc1`
51.4

Hi! What's the reported growth for CC12CCCCC1C(C(N)=O)C(=O)O2 (centres undefined) on UACC-62 melanoma?
98.8
